- Target Under Test: T1, cyno FcRn/b2M (cyno, UniProt Q8SPV9 24-297; Q8SPW0 21-119, biotinylated)
- T1 construct: bought recombinant biotinylated protein (Immunitrack ITF05 or ACRO FCM-C82W5); also called cFcRn; cFcRn/cb2M
- T1 sequence (Q8SPV9 24-297 limits assumed, chain 1 of 2): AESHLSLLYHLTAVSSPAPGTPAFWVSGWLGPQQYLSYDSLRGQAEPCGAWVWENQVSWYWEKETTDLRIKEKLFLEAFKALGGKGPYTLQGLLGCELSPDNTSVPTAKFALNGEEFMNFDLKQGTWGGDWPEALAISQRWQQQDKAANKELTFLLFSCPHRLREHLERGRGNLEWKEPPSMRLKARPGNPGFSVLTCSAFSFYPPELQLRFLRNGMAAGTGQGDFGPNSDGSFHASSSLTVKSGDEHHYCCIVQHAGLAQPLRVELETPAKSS
- T1 sequence (Q8SPW0 21-119 limits assumed, chain 2 of 2): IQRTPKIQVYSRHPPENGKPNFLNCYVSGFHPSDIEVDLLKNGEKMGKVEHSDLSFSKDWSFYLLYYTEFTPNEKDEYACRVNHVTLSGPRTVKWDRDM
- Assay Notes: SPR off-rate; pH 7.4 vs pH 6.0;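 further: surface plasmon resonance with diluted periplasmic extracts flowed over ligand surfaces, 120 s association and 600–3600 s dissociation at 25 °C, running buffer containing 150 mM NaCl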
Property Name: kd ratio pH 7.4/6.0

Study these solved cases before continuing.
binder="T0263018B11 T28V (VHH, name in Kabat numbering, FLAG3-His6 tagged) VHH: EVQLVESGGGVVQPGGSLRLSCAASGFVFSSYAMYWVRQAPGKGLEWVSAISSGGGSTDYADSVKGRFTISRDNSKNTLYLQMNSLRPEDTALYYCAADTLYTSLTWYSYWGQGTLVTVSS" value=42
binder="T0263018B11 T28L (VHH, name in Kabat numbering, FLAG3-His6 tagged) VHH: EVQLVESGGGVVQPGGSLRLSCAASGFLFSSYAMYWVRQAPGKGLEWVSAISSGGGSTDYADSVKGRFTISRDNSKNTLYLQMNSLRPEDTALYYCAADTLYTSLTWYSYWGQGTLVTVSS" value=48
binder="T0263018B11 S101V (VHH, name in Kabat numbering, FLAG3-His6 tagged) VHH: EVQLVESGGGVVQPGGSLRLSCAASGFTFSSYAMYWVRQAPGKGLEWVSAISSGGGSTDYADSVKGRFTISRDNSKNTLYLQMNSLRPEDTALYYCAADTLYTSLTWYVYWGQGTLVTVSS" value=45
binder="T0263018B11 F29D (VHH, name in Kabat numbering, FLAG3-His6 tagged) VHH: EVQLVESGGGVVQPGGSLRLSCAASGFTDSSYAMYWVRQAPGKGLEWVSAISSGGGSTDYADSVKGRFTISRDNSKNTLYLQMNSLRPEDTALYYCAADTLYTSLTWYSYWGQGTLVTVSS" value=54
binder="T0263018B11 G26Y (VHH, name in Kabat numbering, FLAG3-His6 tagged) VHH: EVQLVESGGGVVQPGGSLRLSCAASYFTFSSYAMYWVRQAPGKGLEWVSAISSGGGSTDYADSVKGRFTISRDNSKNTLYLQMNSLRPEDTALYYCAADTLYTSLTWYSYWGQGTLVTVSS" value=51

[a] T0263018B11 S30N (VHH, name in Kabat numbering, FLAG3-His6 tagged) VHH: EVQLVESGGGVVQPGGSLRLSCAASGFTFNSYAMYWVRQAPGKGLEWVSAISSGGGSTDYADSVKGRFTISRDNSKNTLYLQMNSLRPEDTALYYCAADTLYTSLTWYSYWGQGTLVTVSS
[b] T0263018B11 D58H (VHH, name in Kabat numbering, FLAG3-His6 tagged) VHH: EVQLVESGGGVVQPGGSLRLSCAASGFTFSSYAMYWVRQAPGKGLEWVSAISSGGGSTHYADSVKGRFTISRDNSKNTLYLQMNSLRPEDTALYYCAADTLYTSLTWYSYWGQGTLVTVSS
Which of these two has the smaller recorded kd ratio pH 7.4/6.0: a or b ? Reply briefly: the label of your chosen item. b
(b: 11, a: 46)

[a] T0263018B11 W100cF (VHH, name in Kabat numbering, FLAG3-His6 tagged) VHH: EVQLVESGGGVVQPGGSLRLSCAASGFTFSSYAMYWVRQAPGKGLEWVSAISSGGGSTDYADSVKGRFTISRDNSKNTLYLQMNSLRPEDTALYYCAADTLYTSLTFYSYWGQGTLVTVSS
[b] T0263018B11 G26Q (VHH, name in Kabat numbering, FLAG3-His6 tagged) VHH: EVQLVESGGGVVQPGGSLRLSCAASQFTFSSYAMYWVRQAPGKGLEWVSAISSGGGSTDYADSVKGRFTISRDNSKNTLYLQMNSLRPEDTALYYCAADTLYTSLTWYSYWGQGTLVTVSS
Please state the entry with greater kd ratio pH 7.4/6.0 among a and b . Reply briefly: the label of your chosen item. b

[I] T0263018B11 S30E (VHH, name in Kabat numbering, FLAG3-His6 tagged) VHH: EVQLVESGGGVVQPGGSLRLSCAASGFTFESYAMYWVRQAPGKGLEWVSAISSGGGSTDYADSVKGRFTISRDNSKNTLYLQMNSLRPEDTALYYCAADTLYTSLTWYSYWGQGTLVTVSS
[II] T0263018B11 D58T (VHH, name in Kabat numbering, FLAG3-His6 tagged) VHH: EVQLVESGGGVVQPGGSLRLSCAASGFTFSSYAMYWVRQAPGKGLEWVSAISSGGGSTTYADSVKGRFTISRDNSKNTLYLQMNSLRPEDTALYYCAADTLYTSLTWYSYWGQGTLVTVSS
Which of these two has the smaller recorded kd ratio pH 7.4/6.0: I or II ? Reply briefly: the label of your chosen item. II
(II: 10, I: 46)
